Hi there, I'd appreciate the recorded MIC A. baumannii ATCC 19606 for every entry that follows.
Tested on: Acinetobacter baumannii ATCC 19606
Type: cell-based
Details: ATCC 19606
Where a SMILES comes first, the peptide text is derived from it. Bridges are numbered along the chain shown (N, C = ends). [ ]: non-standard residue; d: D form. The star is where a group is joined. Octanoyl = CCCCCCCC(=O)*; Dab = NCC[C@H](N)C(=O)O; X4 = COCCCCCC(=O)*
Answers are plain numbers, in µg/mL.

{"columns": ["molecule", "MIC A. baumannii ATCC 19606 (µg/mL)"],
 "data": [
  ["COCCCCCC(=O)N[C@@H](CCN)C(=O)N[C@H](C(=O)N[C@@H](CCN)C(=O)N[C@H]1CCNC(=O)[C@H]([C@@H](C)O)NC(=O)[C@H](CCN)NC(=O)[C@H](CCN)NC(=O)[C@H](CC(C)C)NC(=O)[C@@H](Cc2ccccc2)NC(=O)[C@H](CCN)NC1=O)[C@@H](C)O [Compound 1] (X4-[Dab]T[Dab][Dab][Dab][dF]L[Dab][Dab]T; lactam 4-C)", 2]
]}

Please state, for each entry, its recorded MIC A. baumannii ATCC 19606.
1. CCCCCCCC(=O)N[C@@H](CCN)C(=O)N[C@H](C(=O)N[C@@H](CCN)C(=O)N[C@H]1CCNC(=O)[C@H]([C@@H](C)O)NC(=O)[C@H](CCN)NC(=O)[C@H](CCN)NC(=O)[C@H](CC(C)C)NC(=O)[C@@H](CC(C)C)NC(=O)[C@H](CCN)NC1=O)[C@@H](C)O [Compound 78] (Octanoyl-[Dab]T[Dab][Dab][Dab][dL]L[Dab][Dab]T; lactam 4-C)
2. CCCCCCCC(=O)N[C@@H](CCN)C(=O)N[C@H](C(=O)N[C@@H](CCN)C(=O)N[C@H]1CCNC(=O)[C@H]([C@@H](C)O)NC(=O)[C@H](CCN)NC(=O)[C@H](CCN)NC(=O)[C@H]([C@@H](C)CC)NC(=O)[C@@H](CC(C)C)NC(=O)[C@H](CCN)NC1=O)[C@@H](C)O [Compound 79] (Octanoyl-[Dab]T[Dab][Dab][Dab][dL]I[Dab][Dab]T; lactam 4-C)

0.5
0.5

###

System: Pseudomonas aeruginosa ATCC 27853
Format: cell-based
Conditions: ATCC 27853
Where a SMILES comes first, the peptide text is derived from it. Bridges are numbered along the chain shown (N, C = ends). [ ]: non-standard residue; d: D form. The star is where a group is joined. dBpa = N[C@H](Cc1ccc(C(=O)c2ccccc2)cc1)C(=O)O; Benzoyl(4-OPh) = O=C(c1ccc(Oc2ccccc2)cc1)*; Heptanoyl(6-Me) = CC(C)CCCCC(=O)*; Nonanoyl = CCCCCCCCC(=O)*; X2 = CC[C@H](C)CCCCC(=O)*; Octanoyl = CCCCCCCC(=O)*; X5 = CCCCCCCC(=O)CC(=O)*; Dab = NCC[C@H](N)C(=O)O; Nva = CCC[C@H](N)C(=O)O
Hi there, I'd appreciate the recorded MIC P. aeruginosa ATCC 27853 for every entry that follows.
Answers are plain numbers, in µg/mL.

{"columns": ["molecule", "target of assay", "value units", "MIC P. aeruginosa ATCC 27853"],
 "data": [
  ["CCCCCCCC(=O)N[C@@H](CCN)C(=O)N[C@H](C(=O)N[C@@H](CCN)C(=O)N[C@H]1CCNC(=O)[C@H]([C@@H](C)O)NC(=O)[C@H](CCN)NC(=O)[C@H](CCN)NC(=O)[C@H](CCC)NC(=O)[C@@H](CC(C)C)NC(=O)[C@H](CCN)NC1=O)[C@@H](C)O [Compound 81] (Octanoyl-[Dab]T[Dab][Dab][Dab][dL][Nva][Dab][Dab]T; lactam 4-C)", "Pseudomonas aeruginosa ATCC 27853", "µg/mL", 1],
  ["CC(C)CCCCC(=O)N[C@@H](CCN)C(=O)N[C@H](C(=O)N[C@@H](CCN)C(=O)N[C@H]1CCNC(=O)[C@H]([C@@H](C)O)NC(=O)[C@H](CCN)NC(=O)[C@H](CCN)NC(=O)[C@H](C(C)C)NC(=O)[C@@H](CC(C)C)NC(=O)[C@H](CCN)NC1=O)[C@@H](C)O [Compound 76] ({Heptanoyl(6-Me)}-[Dab]T[Dab][Dab][Dab][dL]V[Dab][Dab]T; lactam 4-C)", "Pseudomonas aeruginosa ATCC 27853", "µg/mL", 2]
]}

Please state, for each entry, its recorded MIC P. aeruginosa ATCC 27853.
1. CCCCCCCC(=O)N[C@@H](CCN)C(=O)N[C@H](C(=O)N[C@@H](CCN)C(=O)N[C@H]1CCNC(=O)[C@H]([C@@H](C)O)NC(=O)[C@H](CCN)NC(=O)[C@H](CCN)NC(=O)[C@H](C(C)C)NC(=O)[C@@H](CC(C)C)NC(=O)[C@H](CCN)NC1=O)[C@@H](C)O [Compound 80] (Octanoyl-[Dab]T[Dab][Dab][Dab][dL]V[Dab][Dab]T; lactam 4-C)
2. CC[C@H](C)CCCCC(=O)N[C@@H](CCN)C(=O)N[C@H](C(=O)N[C@@H](CCN)C(=O)N[C@H]1CCNC(=O)[C@H]([C@@H](C)O)NC(=O)[C@H](CCN)NC(=O)[C@H](CCN)NC(=O)[C@H](CC(C)C)NC(=O)[C@@H](Cc2ccc(C(=O)c3ccccc3)cc2)NC(=O)[C@H](CCN)NC1=O)[C@@H](C)O [Compound 29] (X2-[Dab]T[Dab][Dab][Dab][dBpa]L[Dab][Dab]T; lactam 4-C)
3. CC[C@H](C)CCCCC(=O)N[C@@H](CCN)C(=O)N[C@H](C(=O)N[C@@H](CCN)C(=O)N[C@H]1CCNC(=O)[C@H]([C@@H](C)O)NC(=O)[C@H](CCN)NC(=O)[C@H](CCN)NC(=O)[C@H]([C@@H](C)CC)NC(=O)[C@@H](CC(C)C)NC(=O)[C@H](CCN)NC1=O)[C@@H](C)O [Compound 71] (X2-[Dab]T[Dab][Dab][Dab][dL]I[Dab][Dab]T; lactam 4-C)
4. CCCCCCCCC(=O)N[C@@H](CCN)C(=O)N[C@H](C(=O)N[C@@H](CCN)C(=O)N[C@H]1CCNC(=O)[C@H]([C@@H](C)O)NC(=O)[C@H](CCN)NC(=O)[C@H](CCN)NC(=O)[C@H](CC(C)C)NC(=O)[C@@H](Cc2ccccc2)NC(=O)[C@H](CCN)NC1=O)[C@@H](C)O [Compound 46] (Nonanoyl-[Dab]T[Dab][Dab][Dab][dF]L[Dab][Dab]T; lactam 4-C)
5. CCCCCCCC(=O)N[C@@H](CCN)C(=O)N[C@H](C(=O)N[C@@H](CO)C(=O)N[C@H]1CCNC(=O)[C@H]([C@@H](C)O)NC(=O)[C@H](CCN)NC(=O)[C@H](CCN)NC(=O)[C@H]([C@@H](C)O)NC(=O)[C@@H](CC(C)C)NC(=O)[C@H](CCN)NC1=O)[C@@H](C)O [Compound 111] (Octanoyl-[Dab]TS[Dab][Dab][dL]T[Dab][Dab]T; lactam 4-C)
6. CCOc1ccc(C[C@H]2NC(=O)[C@H](CCN)NC(=O)[C@@H](NC(=O)[C@H](CCN)NC(=O)[C@@H](NC(=O)[C@H](CCN)NC(=O)CCCC[C@@H](C)CC)[C@@H](C)O)CCNC(=O)[C@H]([C@@H](C)O)NC(=O)[C@H](CCN)NC(=O)[C@H](CCN)NC(=O)[C@H](CC(C)C)NC2=O)cc1 [Compound 25] (X2-[Dab]T[Dab][Dab][Dab][dY](Et)L[Dab][Dab]T; lactam 4-C)
7. CC[C@H](C)CCCCC(=O)N[C@@H](CCN)C(=O)N[C@H](C(=O)N[C@H](CO)C(=O)N[C@H]1CCNC(=O)[C@H]([C@@H](C)O)NC(=O)[C@H](CCN)NC(=O)[C@H](CCN)NC(=O)[C@H]([C@@H](C)O)NC(=O)[C@@H](CC(C)C)NC(=O)[C@H](CCN)NC1=O)[C@@H](C)O [Compound 58] (X2-[Dab]T[dS][Dab][Dab][dL]T[Dab][Dab]T; lactam 4-C)

[1, 4, 2, 2, 1, 2, 2]

Please state, for each entry, its recorded MIC P. aeruginosa ATCC 27853.
1. CC(C)C[C@@H]1NC(=O)[C@@H](Cc2ccccc2)NC(=O)[C@H](CCN)NC(=O)[C@@H](NC(=O)[C@H](CCN)NC(=O)[C@@H](NC(=O)[C@H](CCN)NC(=O)c2ccc(Oc3ccccc3)cc2)[C@@H](C)O)CCNC(=O)[C@H]([C@@H](C)O)NC(=O)[C@H](CCN)NC(=O)[C@H](CCN)NC1=O [Compound 8] ({Benzoyl(4-OPh)}-[Dab]T[Dab][Dab][Dab][dF]L[Dab][Dab]T; lactam 4-C)
2. CCCCCCCC(=O)CC(=O)N[C@@H](CCN)C(=O)N[C@H](C(=O)N[C@@H](CCN)C(=O)N[C@H]1CCNC(=O)[C@H]([C@@H](C)O)NC(=O)[C@H](CCN)NC(=O)[C@H](CCN)NC(=O)[C@H](CC(C)C)NC(=O)[C@@H](Cc2ccccc2)NC(=O)[C@H](CCN)NC1=O)[C@@H](C)O [Compound 7] (X5-[Dab]T[Dab][Dab][Dab][dF]L[Dab][Dab]T; lactam 4-C)

8
4

Taken from patent US20190315806A1.
